Ref: paper PMC7915030

Please respond with reported koff for every item in the list.
Target: T1, recombinant soluble human CR-1 protein (Homo sapiens, UniProt P13385)
T1 construct: Cripto-1 (CR-1), human, recombinant soluble form; also called rshCR-1; rhsCR-1
T1 sequence (P13385 31-150): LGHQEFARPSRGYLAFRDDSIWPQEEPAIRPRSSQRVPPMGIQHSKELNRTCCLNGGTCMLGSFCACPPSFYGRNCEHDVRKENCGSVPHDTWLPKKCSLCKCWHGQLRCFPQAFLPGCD
Experiment: BLI; Octet RED96; rshCR-1 immobilised on Amine Reactive (AR2G) biosensor; anti-CR-1 Abs in ExpiCHO-S conditioned medium as analyte
Conditions: one partner purified
One number for each entry, in s⁻¹.

Dear colleague, could you send me koff for each of the items below? Thanks.
1. anti-CR-1 antibody Clone 331 (antibody, V domains shown, VH of phage clone 331; human IgG heavy chain constant region CH1-CH2-CH3 from the vector pHIgH5zeo; VL of phage clone 331; human IgG light chain constant region CL from the vector pHIgL5hyg; whole human IgG built from the VH and VL of the scFv phage clone; also called anti-CR-1 Ab; source: ExpiCHO-S, transfected, conditioned medium) VH: QVQLQQSGPGQVKPSQSLSLICAISGDSVSTSSAAWNWIRQSPSRGFEWLGRTFYRSGWFTDYAASVKSRITINPDTSKNQFSLQLNSVTPEDTAMYYCARIRSGYRFDYWGQGILVAVSS VL: NFMLTQPPSASGTPGQRVTVSCSGSSSNIGSNFVFWYQHLPGKAPKLLIYRNHQRPSGVPDRFSGSKSGTSASLAISGLRSEDESDYYCQVWDDRNVVFGGGTQLTVL
2. anti-CR-1 antibody Clone 292 (antibody, V domains shown, VH of phage clone 292; human IgG heavy chain constant region CH1-CH2-CH3 from the vector pHIgH5zeo; VL of phage clone 292; human IgG light chain constant region CL from the vector pHIgL5hyg; whole human IgG built from the VH and VL of the scFv phage clone; also called anti-CR-1 Ab; source: ExpiCHO-S, transfected, conditioned medium) VH: QVQLQQSGPGLVKPSQTLPLTCAIYGDSVSSNSAAWNWIRQSPSRGLEWLGRTYYRSKWYNDYAVSVQSRITINPDTSKNQFSLQLNSVTPEDTAMYYCAKGKLSLEVITTRGWDWGQGTLVTVSS VL: QSVLTQPRSVSGSPGQSVTISCTGTRADVGTYHYVSWYQRHPGKAPKLIIYDVSKRPSGVPDRFSGSKSGNTASLTVSGLQAEDEADYYCQSADSSGTYVIFGGGTQLTVL
3. anti-CR-1 antibody Clone 90 (antibody, V domains shown, VH of phage clone 90; human IgG heavy chain constant region CH1-CH2-CH3 from the vector pHIgH5zeo; VL of phage clone 90; human IgG light chain constant region CL from the vector pHIgL5hyg; whole human IgG built from the VH and VL of the scFv phage clone; also called anti-CR-1 Ab; source: ExpiCHO-S, transfected, conditioned medium) VH: QVQLQQSGPGLVKPSQTLSLTCAISGDSVSSNSAAWNWIRQSPSRGLEWLGRTYYRSKWYNDYAVSVKSRITIKPDTSKNQFSLQLYSVTPEDTAMYYCARDSYGMDVWGQGTTATVSS VL: NFMLTQPPSASGTPGQRVSISCSGSSSNIGSSSVYWCRQLPGTAPKLLIYDVTNRPSGVPDRFSASKSGTSASLAISGLRSEDESDYYCVLYMGSGISVFGGGTKVTVL
4. anti-CR-1 antibody Clone 226 (antibody, V domains shown, VH of phage clone 226; human IgG heavy chain constant region CH1-CH2-CH3 from the vector pHIgH5zeo; VL of phage clone 226; human IgG light chain constant region CL from the vector pHIgL5hyg; whole human IgG built from the VH and VL of the scFv phage clone; also called anti-CR-1 Ab; source: ExpiCHO-S, transfected, conditioned medium) VH: QVQLQQSGPGLVKPSQTLSLTCAISGDSVSSNSAAWNWIRQSPSRGLEWLGRTYYRSKWYNDYAVSVKSRITINPDTSKNQFSLQLNSVTPEDTAVYYCTPTPTWWPVRWGQGTLVTVSS VL: QSALTQPRSVSGSPGQSVTISCTGTSGDVGYYDHVSWYQQHPGKAPKLFIYDVTKRPSGVPDRFSASKSGNTASLTISRLQAEDEAEYHCLTWGNSAVFGGGTQLTVL

## Output
[0.0181, 0.0207, 0.0196, 0.0194]

Dear colleague, could you send me koff for each of the items below? Thanks.
1. anti-CR-1 antibody Clone 242 (antibody, V domains shown, VH of phage clone 242; human IgG heavy chain constant region CH1-CH2-CH3 from the vector pHIgH5zeo; VL of phage clone 242; human IgG light chain constant region CL from the vector pHIgL5hyg; whole human IgG built from the VH and VL of the scFv phage clone; also called anti-CR-1 Ab; source: ExpiCHO-S, transfected, conditioned medium) VH: QVQLVESGGGLVQPGGSLRLSCAASGFTFSNKPMSWVRQAPGKGLEWLSAISGSGVYAYFADSAKGRFTISRDNSKNTPYLQMNSLRAEDTAMYYCARQHITMLPGWFDPWGQGTLVTVSS VL: QSVLTQPPSASGSPGQSVTISCTGSSSDVGGYNYVSWYQQHPGKAPKLMIYEVSKRPSGVPDRFSGSKSGNTASLTVSGLQAEDEAEYHCATWDNSLSSWVFGRGTQLTVL
2. anti-CR-1 antibody Clone 212 (antibody, V domains shown, VH of phage clone 212; human IgG heavy chain constant region CH1-CH2-CH3 from the vector pHIgH5zeo; VL of phage clone 212; human IgG light chain constant region CL from the vector pHIgL5hyg; whole human IgG built from the VH and VL of the scFv phage clone; also called anti-CR-1 Ab; source: ExpiCHO-S, transfected, conditioned medium) VH: QVQLQQSGPGLVKPSQTLSLTCGISGDSVSSNSAAWNWIRQSPSRGLEWLGRTYYRSQWYNDYAVSVNSRITINPDTSKNQFSLQLNSVTPEDTAMYYCARTLRTPLADDYYYSGMDAWGQGTTVTVSS VL: QSVLIQPASVSGSPGQSITISCTGTSSDVGSYNLASWYQHHPGKAPKLMIYEVNNRPSGVSNRFSGSKSGNTASLTISGLQAEDEADYYCQVWDGSGDPHAVFGGGTQLTVL
3. anti-CR-1 antibody Clone 35 (antibody, V domains shown, VH of phage clone 35; human IgG heavy chain constant region CH1-CH2-CH3 from the vector pHIgH5zeo; VL of phage clone 35; human IgG light chain constant region CL from the vector pHIgL5hyg; whole human IgG built from the VH and VL of the scFv phage clone; also called anti-CR-1 Ab Clone 35; anti-CR-1 Ab; source: ExpiCHO-S, transfected, conditioned medium; also purified (HiTrap protein A)) VH: QVQLQQSGPGLVKPSQTLSLTCAISGNSVSSNSAAWNWIRRSPSRGLEWLGRTYYRSKWYNDYAVSVKSRITIKPDTSKNQFSLQLNSVTPEDTAMYYCARGFCSGGRCYSFDYWGPGTLVTVSS VL: QSVLTQPASVSGSPGQSITISCTGTDSDVGAYGSASWYRHSPGKAPQLIIYDVTNRPSGVSNRFYGSKSGNTASLTISGLQAEDEADYYCQAWDSGIHVVFGGGTQLTVL
4. anti-CR-1 antibody Clone 224 (antibody, V domains shown, VH of phage clone 224; human IgG heavy chain constant region CH1-CH2-CH3 from the vector pHIgH5zeo; VL of phage clone 224; human IgG light chain constant region CL from the vector pHIgL5hyg; whole human IgG built from the VH and VL of the scFv phage clone; also called anti-CR-1 Ab; source: ExpiCHO-S, transfected, conditioned medium) VH: QVQLQQSGPGLVKPSQTLSLTCAISGDSVSSNSATWNWIRQSPSRGLEWLGRTYYKSKWYNEYAVSVKSRITINPDTSKNQFSLQLDSVTPEDTAMYYCATDRYYARDYWGRGTLVTVSS VL: QSVLIQPRSVSGSPGQSVTISCTGTSGDVGYYDHVSWYQQHPGKAPKIMIYDVTQRPSGVPDRFSGSRSGNTASLTISGLQADDESDYYCVLYLGNGIWVFGGGTQLTVL

## Output
1. 0.0187
2. 0.0209
3. 0.0186
4. 0.0191
